Measured pEC50, listed per entry for reference.
# tested system: T1, human CD3ε expressed on the cell surface of T cells (Jurkat cells; human CD8+ T cells) (human, UniProt P07766 23-207)
# T1 construct: whole, on cells; also called native CD3ε embedded in the TCR complex on Jurkat cells
# measurement description: cell-based ELISA on Jurkat cells, CD3ε-deficient Jurkat subtracted
Remember, pEC50 is on a log scale: it is -log10 of the molar concentration.

clone-04 (antibody, V domains shown, Recombinant rabbit IgG; also called Clone 4) VH: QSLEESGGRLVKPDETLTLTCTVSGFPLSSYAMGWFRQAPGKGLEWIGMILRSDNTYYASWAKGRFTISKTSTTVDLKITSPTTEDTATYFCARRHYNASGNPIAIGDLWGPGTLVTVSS VL: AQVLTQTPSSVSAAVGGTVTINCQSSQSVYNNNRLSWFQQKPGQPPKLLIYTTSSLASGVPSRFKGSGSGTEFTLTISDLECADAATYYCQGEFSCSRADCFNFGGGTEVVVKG | 8.73
clone-12 (antibody, V domains shown, Recombinant rabbit IgG) VH: QSLEESGGRLVTPGTPLTLTCTVSGFPLSRYAMLWVRQAPGKGLEWIGLITRADNKYYASWAKGRFTISKTSTTVDLEITSPTTEDTATYFCARRHYNTDGYPIAIGDLWGPGTLVTVSS VL: AQVLTQTPSSVSATVGGTVTISCQSNENIYSNNRLSWFQQKPGQPPKLLIYSASSLASGVPSRFKGSGSGTQFTLTISDLECDDAATYYCQGEFNCNSADCFTFGGGTEVVVKG | 9.23

Kindly consider the entry below.
Tell us which pEC50 value is on record for clone-09 (antibody, V domains shown, Recombinant rabbit IgG) VH: QSLEESGGRLVTPGTPLTLTCTVSGFPLNRYAMLWVRQAPGKGLEWIGLITRADKKYYASWAKGRFTISKTSTTVDLEITGPTTEDTATYFCARRHYNTDGYPVAIGDLWGPGTLVTVSS VL: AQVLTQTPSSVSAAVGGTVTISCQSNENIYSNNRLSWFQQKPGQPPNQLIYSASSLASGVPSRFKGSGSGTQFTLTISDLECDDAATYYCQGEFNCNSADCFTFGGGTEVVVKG
9.09
